PBM binding z-score values for the sequences below.
test system: THRa:RXRa (NR concentration 90 nM, RXRa partner concentration 90 nM); test: PBM binding z-score (relative to random genomic background probes); higher = stronger binding; sequences stand for … in GC…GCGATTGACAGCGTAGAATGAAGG

// below: answered sequences
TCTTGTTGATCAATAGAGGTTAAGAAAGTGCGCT : 1.58
CGTCCAAGGTCAAAGGTCTGTGAAGAGATGACGG : 4.04
ATCTCTAGGTAAGACTCAGTTCAGTGATGAACGC : 0.739

Record summary for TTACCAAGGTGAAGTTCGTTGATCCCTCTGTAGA : reported PBM binding z-score = 1.8

PBM binding z-score reported for this sequence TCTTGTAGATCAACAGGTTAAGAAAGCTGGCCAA : 0.203

get_value(item= CTTCAAAGTTCAAGGTAACGTAACAGAAAGCAGC , readout=PBM binding z-score) returns 2.96

// PBM binding z-score lookup, sequence = CCTACTGGGCCATCAGGTCAGTGATATCAACGTT , result: 2.19

// ATCGAAAGGTCGTGAGGTGAGTATACAGAAAGGC : PBM binding z-score value = 3.45

====

test system: RARg:RXRa (NR concentration 270 nM, RXRa partner concentration 90 nM); test: PBM binding z-score (relative to random genomic background probes); higher = stronger binding; sequences stand for … in GC…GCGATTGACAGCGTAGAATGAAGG
PBM binding z-score below 0.8 gives 0 (no); PBM binding z-score at or above it gives 1 (yes).

Worked cases, answers included:
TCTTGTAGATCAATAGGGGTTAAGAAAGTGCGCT : 1 (yes)
TAGCCTAAGTCAGATCGGGCCAGTATACGCTATA : 0 (no)
ACAACGAGGGCAATGAGTTGATAGCACGGGTGGC : 1 (yes)

q: Is the recorded value of PBM binding z-score equal to or greater than 0.8 for this sequence? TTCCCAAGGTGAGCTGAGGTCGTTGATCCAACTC
a: 1 (yes)

q: # bool: PBM binding z-score of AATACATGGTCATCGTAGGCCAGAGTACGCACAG >= 0.8
a: 0 (no)

====

system: RARg homodimer (NR concentration 270 nM); experiment: PBM binding z-score (relative to random genomic background probes); higher = stronger binding; sequences stand for … in GC…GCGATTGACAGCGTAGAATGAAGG
A collection of sequences and their measured PBM binding z-score

Examples with answers:
ATCGAAAGGTCGTAAGGTGAGTATACAGAAAGGC : 3.87
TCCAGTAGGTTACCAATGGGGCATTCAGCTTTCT : 0.608
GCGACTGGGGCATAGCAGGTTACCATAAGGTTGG : 0.629
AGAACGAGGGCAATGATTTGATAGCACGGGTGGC : 1.4

Sample TCTCGGAGGACACGCAGGTCAGAGCTTTCCAGAG ; PBM binding z-score observed: 3.04

The sequence GCGACTCGGGCAAAGCAGGTTACCATAAGGTTGG showed PBM binding z-score equal to 0.464

Kindly note the recorded PBM binding z-score for CGTCCAAGGTGATAGGAGGTCAGTGAAGACAGAT , which is 2.86

// recorded PBM binding z-score for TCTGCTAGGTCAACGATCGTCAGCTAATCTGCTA : 4.96

Lookup result for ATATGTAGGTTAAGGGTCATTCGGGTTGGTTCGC ; measured PBM binding z-score: 3.3

The recorded PBM binding z-score for CCTGCTAGGTCAATGGTCAGCTTAAGCAGCTCGC is 4.2

For reference, reported PBM binding z-score for TCTCGGAGGACACGAAGGTCAGAGCCTTCCAGAG stands at 4.07

So, TCGACTAGGTTAGTCGGGGCATTCAGCCAACATA ? Its PBM binding z-score was -0.0411

Noted for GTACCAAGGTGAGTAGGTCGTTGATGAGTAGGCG : its PBM binding z-score reads 0.657

PBM binding z-score in this record for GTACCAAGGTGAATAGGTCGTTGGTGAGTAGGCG : 1.13
